FYI, the data here is from ChEMBL document CHEMBL1201862.

GI50: recorded values
# System: DU-145
# assay_summary: NCI tumour cell line growth inhibition, 48 h
Active and inactive are the calls of the source. No stated cut-off is given here; in the data, active = GI50 up to about 1.1 µM and inactive = higher.

COc1cc(Cn2c(=S)ss/c2=N\C(=S)N(C)C)cc(OC)c1OC ... > 28.5 µM (inactive)
COc1ncc(C#CC(=O)c2ccccc2)c(OC)n1 ... 8.07 µM (inactive)
C=CCn1c(S)nnc1C12CC3CC(CC(C3)C1)C2 ... 69.3 µM (inactive)
CC(C)(C)C1CCC2(CC1)CCN(CCCN1CCOCC1)CC2 ... > 100 µM (inactive)
COC(O)C(=O)c1c2c(cc3c1CCC3)CCC2 (stereo unspecified) ... > 100 µM (inactive)

Could you now consider this next compound?
Query: Kindly indicate its recorded GI50. Item: CC1(C)C(=O)C2(C#N)CCC1C2 (stereo unspecified)
Result: > 100 µM (inactive)
